Origin of measurements: patent US20220177587A1

- Tested on: huCTLA4 (Homo sapiens, UniProt P16410)
- Sequence (P16410 36-223): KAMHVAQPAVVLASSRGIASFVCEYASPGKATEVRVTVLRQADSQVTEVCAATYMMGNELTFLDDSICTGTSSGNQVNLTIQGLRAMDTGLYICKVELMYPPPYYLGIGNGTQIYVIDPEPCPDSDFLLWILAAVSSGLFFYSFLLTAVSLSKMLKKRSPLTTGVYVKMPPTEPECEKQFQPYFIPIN
- Measurement description: Flow binding to CHO cells stably expressing CTLA4
- Parameters: huCTLA4 and huPD-L1, full-length mammalian surface expression constructs were generated; expressed in transfected cells; host or cells: CHO cells, lentiviral transduction, sorted to >98% purity
- Measurement context: Table E23; CD80 IgV-Fc (inert) at 33.3 nM; CHO cells stably expressing CTLA4
Items are presented alongside their recorded CTLA4 MFI at 33.3 nM.
Field format: numeric only.

A26P/E35D/M47I/V68M/A71G/D90G (protein, UniProt P33681 35-288, looked up, variant A26P E35D M47I V68M A71G D90G) T-lymphocyte activation …: VIHVTKEVKEVATLSCGHNVSVEELPQTRIYWQKDKKMVLTMMSGDINIWPEYKNRTIFDITNNLSIMILGLRPSDEGTYECVVLKYEKGAFKREHLAEVTLSVKADFPTPSISDFEIPTSNIRRIICSTSGGFPEPHLSWLENGEELNAINTTVSQDPETELYAVSSKLDFNMTTNHSFMCLIKYGHLRVNQTFNWNTTKQEHFPDNLLPSWAITLISVNGIFVICCLTYCFAPRCRERRRNERLRRESVRPV; 19761

Next, consider the following molecule.
Give CTLA4 MFI at 33.3 nM for the following molecule: H18L/A26N/D46E/V68M/A71G/D90G (protein, UniProt P33681 35-288, looked up, variant H18L A26N D46E V68M A71G D90G) T-lymphocyte activation …: VIHVTKEVKEVATLSCGLNVSVEELNQTRIYWQKEKKMVLTMMSGEMNIWPEYKNRTIFDITNNLSIMILGLRPSDEGTYECVVLKYEKGAFKREHLAEVTLSVKADFPTPSISDFEIPTSNIRRIICSTSGGFPEPHLSWLENGEELNAINTTVSQDPETELYAVSSKLDFNMTTNHSFMCLIKYGHLRVNQTFNWNTTKQEHFPDNLLPSWAITLISVNGIFVICCLTYCFAPRCRERRRNERLRRESVRPV
17045
